ASSAY_SUMMARY: PK of compound of Formula (Ia) after single subcutaneous dose of solution formulations in beagle dogs
Assay type: in vivo
ASSAY_CONTEXT: male, beagle, dog, plasma, sc, 12 mg/kg, beagle dogs, SC 12 mg/kg, 400 mg/mL solution Y (water, PEG 300), 504 h, Mean n = 3
Method: Formulations containing the compound of Formula (Ia), or a pharmaceutically acceptable salt thereof, were prepared as solutions and optionally administered subcutaneously or intramuscularly to rats, rabbits, and/or dogs. A solution of about 400 mg/mL of the compound of Formula (Ia) having 17.00 w/w % water, 36.40 w/w % PEG 300, 35.20 w/w % of a sodium salt of a compound of Formula (Ia), 5.00 w/w % ethanol, and 6.40 w/w % poloxamer 188 was prepared. […]
REPORTED_PROPERTY: concentration at 504 h (nM)
State just the number; it will be interpreted in nM.

## Input Entry under review: CC(C)(C#Cc1ccc(-c2ccc(Cl)c3c(NS(C)(=O)=O)nn(CC(F)(F)F)c23)c([C@H](Cc2cc(F)cc(F)c2)NC(=O)Cn2nc(C(F)(F)F)c3c2C(F)(F)[C@@H]2C[C@H]32)n1)S(C)(=O)=O . Reported concentration at 504 h?
## Output 248

* * *

ASSAY_SUMMARY: PK of compound of Formula (Ia) after single subcutaneous dose of solution formulations in Wistar Han rats
Format: in vivo
ASSAY_CONTEXT: male, Wistar Han, rat, plasma, sc, 50 mg/kg, 72.0 h; individual rats; SC 50 mg/kg; solution R, 400 mg/mL
Procedure: Formulations containing the compound of Formula (Ia), or a pharmaceutically acceptable salt thereof, were prepared as solutions and optionally administered subcutaneously or intramuscularly to rats, rabbits, and/or dogs. A solution of about 400 mg/mL of the compound of Formula (Ia) having 19.14 w/w % water, 40.66 w/w % PEG 300, 35.20 w/w % of a sodium salt of a compound of Formula (Ia), and 5.00% ethanol was prepared. […]
REPORTED_PROPERTY: concentration at 72 h (nM)
State just the number; it will be interpreted in nM.

## Input Entry under review: CC(C)(C#Cc1ccc(-c2ccc(Cl)c3c(NS(C)(=O)=O)nn(CC(F)(F)F)c23)c([C@H](Cc2cc(F)cc(F)c2)NC(=O)Cn2nc(C(F)(F)F)c3c2C(F)(F)[C@@H]2C[C@H]32)n1)S(C)(=O)=O . Reported concentration at 72 h?
## Output 168

* * *

ASSAY_SUMMARY: PK of compound of Formula (Ia) after single subcutaneous dose of solution formulations in Wistar Han rats
Assay type: in vivo
ASSAY_CONTEXT: male, Wistar Han, rat, plasma, sc, 50 mg/kg, mean ± SD, n = 3 rats; SC 50 mg/kg; solution R, 400 mg/mL
Procedure: Formulations containing the compound of Formula (Ia), or a pharmaceutically acceptable salt thereof, were prepared as solutions and optionally administered subcutaneously or intramuscularly to rats, rabbits, and/or dogs. A solution of about 400 mg/mL of the compound of Formula (Ia) having 19.14 w/w % water, 40.66 w/w % PEG 300, 35.20 w/w % of a sodium salt of a compound of Formula (Ia), and 5.00% ethanol was prepared. […]
REPORTED_PROPERTY: Cmax
Respond with the figure and its unit, in that order.

## Input Entry under review: CC(C)(C#Cc1ccc(-c2ccc(Cl)c3c(NS(C)(=O)=O)nn(CC(F)(F)F)c23)c([C@H](Cc2cc(F)cc(F)c2)NC(=O)Cn2nc(C(F)(F)F)c3c2C(F)(F)[C@@H]2C[C@H]32)n1)S(C)(=O)=O . Reported Cmax?
## Output 370 nM

* * *

ASSAY_SUMMARY: PK of compound of Formula (Ia) after single subcutaneous dose of solution formulations in beagle dogs
Format: in vivo
ASSAY_CONTEXT: male, beagle, dog, plasma, sc, 12 mg/kg, 2352 h; individual dogs; SC 12 mg/kg; solution T, 400 mg/mL
REPORTED_PROPERTY: concentration at 2352 h (nM)
State just the number; it will be interpreted in nM.

## Input Entry under review: CC(C)(C#Cc1ccc(-c2ccc(Cl)c3c(NS(C)(=O)=O)nn(CC(F)(F)F)c23)c([C@H](Cc2cc(F)cc(F)c2)NC(=O)Cn2nc(C(F)(F)F)c3c2C(F)(F)[C@@H]2C[C@H]32)n1)S(C)(=O)=O . Reported concentration at 2352 h?
## Output 4.8

* * *

ASSAY_SUMMARY: PK of compound of Formula (Ia) after single subcutaneous dose of solution formulations in Wistar Han rats
Format: in vivo
ASSAY_CONTEXT: male, Wistar Han, rat, plasma, sc, 50 mg/kg, Wistar Han rats, SC 50 mg/kg, 400 mg/mL solution W (5.00% ethanol, 1.57% poloxamer 188), 672 h, animals #1-#3
REPORTED_PROPERTY: concentration at 672 h (µM)
State just the number; it will be interpreted in µM.

## Input Entry under review: CC(C)(C#Cc1ccc(-c2ccc(Cl)c3c(NS(C)(=O)=O)nn(CC(F)(F)F)c23)c([C@H](Cc2cc(F)cc(F)c2)NC(=O)Cn2nc(C(F)(F)F)c3c2C(F)(F)[C@@H]2C[C@H]32)n1)S(C)(=O)=O . Reported concentration at 672 h?
## Output 0.217

* * *

ASSAY_SUMMARY: PK of compound of Formula (Ia) after single subcutaneous dose of solution formulations in Wistar Han rats
Format: in vivo
ASSAY_CONTEXT: male, Wistar Han, rat, plasma, sc, 50 mg/kg, male Wistar Han rats, single SC 50 mg/kg, 400 mg/mL solution Y (water, PEG 300), mean ± SD, n = 4; read-out: AUC0-1008 h
REPORTED_PROPERTY: AUC(0-t) (µM·h)
State just the number; it will be interpreted in µM·h.

## Input Entry under review: CC(C)(C#Cc1ccc(-c2ccc(Cl)c3c(NS(C)(=O)=O)nn(CC(F)(F)F)c23)c([C@H](Cc2cc(F)cc(F)c2)NC(=O)Cn2nc(C(F)(F)F)c3c2C(F)(F)[C@@H]2C[C@H]32)n1)S(C)(=O)=O . Reported AUC(0-t)?
## Output 128

* * *

ASSAY_SUMMARY: PK of compound of Formula (Ia) after single subcutaneous dose of solution formulations in beagle dogs
Assay type: in vivo
ASSAY_CONTEXT: male, beagle, dog, plasma, sc, 12 mg/kg, beagle dogs, SC 12 mg/kg, 400 mg/mL solution Z (3.13% poloxamer 188), 3.00 h, Mean n = 3
REPORTED_PROPERTY: concentration at 3 h (nM)
State just the number; it will be interpreted in nM.

## Input Entry under review: CC(C)(C#Cc1ccc(-c2ccc(Cl)c3c(NS(C)(=O)=O)nn(CC(F)(F)F)c23)c([C@H](Cc2cc(F)cc(F)c2)NC(=O)Cn2nc(C(F)(F)F)c3c2C(F)(F)[C@@H]2C[C@H]32)n1)S(C)(=O)=O . Reported concentration at 3 h?
## Output 5.83

* * *

ASSAY_SUMMARY: PK of compound of Formula (Ia) after single subcutaneous dose of solution formulations in beagle dogs
Type: in vivo
ASSAY_CONTEXT: male, beagle, dog, plasma, sc, 12 mg/kg, beagle dogs, SC 12 mg/kg, 400 mg/mL solution W (5.00% ethanol, 1.57% poloxamer 188), 72.0 h, Mean n = 3
REPORTED_PROPERTY: concentration at 72 h (nM)
State just the number; it will be interpreted in nM.

## Input Entry under review: CC(C)(C#Cc1ccc(-c2ccc(Cl)c3c(NS(C)(=O)=O)nn(CC(F)(F)F)c23)c([C@H](Cc2cc(F)cc(F)c2)NC(=O)Cn2nc(C(F)(F)F)c3c2C(F)(F)[C@@H]2C[C@H]32)n1)S(C)(=O)=O . Reported concentration at 72 h?
## Output 48.6

* * *

ASSAY_SUMMARY: PK of compound of Formula (Ia) after single subcutaneous dose of solution formulations in Wistar Han rats
Format: in vivo
ASSAY_CONTEXT: male, Wistar Han, rat, plasma, sc, 50 mg/kg, mean ± SD, n = 5 rats; SC 50 mg/kg; solution T, 400 mg/mL; read-out: AUC0-6048 h
Method: Formulations containing the compound of Formula (Ia), or a pharmaceutically acceptable salt thereof, were prepared as solutions and optionally administered subcutaneously or intramuscularly to rats, rabbits, and/or dogs. A solution of about 400 mg/mL of the compound of Formula (Ia) having 19.14 w/w % water, 40.66 w/w % PEG 300, 35.20 w/w % of a sodium salt of a compound of Formula (Ia), and 5.00% ethanol was prepared. […]
REPORTED_PROPERTY: AUC(0-t) (µM·h)
State just the number; it will be interpreted in µM·h.

## Input Entry under review: CC(C)(C#Cc1ccc(-c2ccc(Cl)c3c(NS(C)(=O)=O)nn(CC(F)(F)F)c23)c([C@H](Cc2cc(F)cc(F)c2)NC(=O)Cn2nc(C(F)(F)F)c3c2C(F)(F)[C@@H]2C[C@H]32)n1)S(C)(=O)=O . Reported AUC(0-t)?
## Output 766
